All values here come from ChEMBL document CHEMBL5523675.

assay method text: Genotoxicity in human MCF7 cells assessed as abnormal tail nuclei measured after 48 hrs by ethidium bromide staining based fluorescent microscopic analysis
Type: toxicity, cell-based
condition label: mcf7, 48 h
attribute measured: Activity

smiles data: C[n+]1ccc(/C=C/c2cc3c(O)c(c2)Cc2cc(C(C)(C)C)cc(c2OCCCn2cc(CN4C(=O)C(=O)c5cc(Cl)ccc54)nn2)Cc2cc(/C=C/c4cc[n+](C)cc4)cc(c2O)Cc2cc(C(C)(C)C)cc(c2OCCCn2cc(CN4C(=O)C(=O)c5cc(Cl)ccc54)nn2)C3)cc1.[I-].[I-]
result: Toxic
--
smiles data: Cc1ccc2c(c1)C(=O)C(=O)N2Cc1cn(CCCOc2c3cc(C(C)(C)C)cc2Cc2cc(/C=C/c4cc[n+](C)cc4)cc(c2O)Cc2cc(C(C)(C)C)cc(c2OCCCn2cc(CN4C(=O)C(=O)c5cc(C)ccc54)nn2)Cc2cc(/C=C/c4cc[n+](C)cc4)cc(c2O)C3)nn1.[I-].[I-]
result: Toxic

---

assay method text: Genotoxicity in human MCF7 cells assessed as appearance of damaged DNA structures measured after 48 hrs by ethidium bromide staining based fluorescent microscopic analysis
Type: toxicity, cell-based
condition label: mcf7, 48 h
attribute measured: Activity

smiles data: Cc1ccc2c(c1)C(=O)C(=O)N2Cc1cn(CCCOc2c3cc(C(C)(C)C)cc2Cc2cc(/C=C/c4cc[n+](C)cc4)cc(c2O)Cc2cc(C(C)(C)C)cc(c2OCCCn2cc(CN4C(=O)C(=O)c5cc(C)ccc54)nn2)Cc2cc(/C=C/c4cc[n+](C)cc4)cc(c2O)C3)nn1.[I-].[I-]
result: Toxic

---

Tested on: MDA-MB-231
assay method text: Induction of apoptosis in human MDA-MB-231 cells assessed as necrosis incubated for 48 hrs by annexin V and 7-AAD staining based flow cytometry analysis (reference value: 0.09%)
Assay type: functional

smiles data: C[n+]1ccc(/C=C/c2cc3c(O)c(c2)Cc2cc(C(C)(C)C)cc(c2OCCCn2cc(CN4C(=O)C(=O)c5cc(F)ccc54)nn2)Cc2cc(/C=C/c4cc[n+](C)cc4)cc(c2O)Cc2cc(C(C)(C)C)cc(c2OCCCn2cc(CN4C(=O)C(=O)c5cc(F)ccc54)nn2)C3)cc1.[I-].[I-]
Activity: 33.01%
